Value source: patent US20050226874A1

- tgt: T1, membranous CD4 (wild human CD4 expressed on cells) (human, UniProt P01730 26-458)
- T1 construct: whole, on cells; also called T A2.01/CD4 cells; T AN2.01/CD4 cells
- assay: flow cytometry, T A2.01/CD4 cells, Fab at 1 µg/ml, fluorescein-labeled anti-kappa chain antibody
measurement-name: percent of cells under the marker bar of the histogram (%)
Response body: numeric value in %, unit text excluded.

Look up percent of cells under the marker bar of the histogram for this binder: wild recombinant chimeric Fab fragment of the 13B8.2 anti-CD4 antibody (Fab, V domains shown, Chimeric Fab: murine V domains fused to human CH1-γ1 (Fdγ1) and human Cκ, expressed in baculovirus/Sf9 cells, purified on protein G; also called Fabwild 13B8.2; wild Fab) VH: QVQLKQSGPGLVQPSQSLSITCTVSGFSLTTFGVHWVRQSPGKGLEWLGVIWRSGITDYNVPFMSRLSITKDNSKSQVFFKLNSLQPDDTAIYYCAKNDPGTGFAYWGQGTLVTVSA VL: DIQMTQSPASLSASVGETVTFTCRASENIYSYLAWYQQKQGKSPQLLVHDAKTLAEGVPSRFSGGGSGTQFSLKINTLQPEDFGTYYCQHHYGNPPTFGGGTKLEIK 44.7

Also, mutant Fab C92-H of the 13B8.2 antibody (Fab, V domains shown, Chimeric Fab with human CH1-γ1 and Cκ; baculovirus/Sf9) VH: QVQLKQSGPGLVQPSQSLSITCTVSGFSLTTFGVHWVRQSPGKGLEWLGVIWRSGITDYNVPFMSRLSITKDNSKSQVFFKLNSLQPDDTAIYYAAKNDPGTGFAYWGQGTLVTVSA VL: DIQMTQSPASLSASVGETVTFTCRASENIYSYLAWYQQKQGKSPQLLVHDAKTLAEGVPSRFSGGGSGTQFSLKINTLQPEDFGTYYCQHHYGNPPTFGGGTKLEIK please. 76.5

Also, mutant Fab Y36-L of the 13B8.2 antibody (Fab, V domains shown, Chimeric Fab with human CH1-γ1 and Cκ; baculovirus/Sf9) VH: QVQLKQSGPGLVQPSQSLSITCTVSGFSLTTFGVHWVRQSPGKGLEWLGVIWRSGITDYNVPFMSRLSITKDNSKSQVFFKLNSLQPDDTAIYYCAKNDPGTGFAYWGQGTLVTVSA VL: DIQMTQSPASLSASVGETVTFTCRASENIYSYLAWAQQKQGKSPQLLVHDAKTLAEGVPSRFSGGGSGTQFSLKINTLQPEDFGTYYCQHHYGNPPTFGGGTKLEIK please. 44.6

Also, mutant Fab R38-H of the 13B8.2 antibody (Fab, V domains shown, Chimeric Fab with human CH1-γ1 and Cκ; baculovirus/Sf9) VH: QVQLKQSGPGLVQPSQSLSITCTVSGFSLTTFGVHWVAQSPGKGLEWLGVIWRSGITDYNVPFMSRLSITKDNSKSQVFFKLNSLQPDDTAIYYCAKNDPGTGFAYWGQGTLVTVSA VL: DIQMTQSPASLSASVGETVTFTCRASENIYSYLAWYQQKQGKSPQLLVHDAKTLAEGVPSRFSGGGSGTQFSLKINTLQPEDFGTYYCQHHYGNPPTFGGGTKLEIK please. 48
